protocol: Half life in Beagle dog at 1 mg/kg, iv
Type: ADME, organism-based, Canis lupus familiaris
assay_conditions: in vivo
readout: half-life (h)
Respond numerically; units are h and should not be typed.

## Input # get_value(readout='half-life', item= COCCCOc1cc2c(cc1OC)-c1cc(=O)c(C(=O)O)cn1[C@H](C(C)(C)C)CO2 )
## Output 3.39

###

protocol: Oral bioavailability in Beagle dog at 3 mg/kg
Format: ADME, organism-based, Canis lupus familiaris
assay_conditions: in vivo
readout: bioavailability (%)
I only need the number, in %, no unit after it.

## Input Quick one: bioavailability for COCCCOc1cc2c(cc1OC)-c1cc(=O)c(C(=O)O)cn1[C@H](C(C)(C)C)CO2 ?
## Output 93.2

###

tested_system: UniProt:P10635
Sequence (P10635 whole entry): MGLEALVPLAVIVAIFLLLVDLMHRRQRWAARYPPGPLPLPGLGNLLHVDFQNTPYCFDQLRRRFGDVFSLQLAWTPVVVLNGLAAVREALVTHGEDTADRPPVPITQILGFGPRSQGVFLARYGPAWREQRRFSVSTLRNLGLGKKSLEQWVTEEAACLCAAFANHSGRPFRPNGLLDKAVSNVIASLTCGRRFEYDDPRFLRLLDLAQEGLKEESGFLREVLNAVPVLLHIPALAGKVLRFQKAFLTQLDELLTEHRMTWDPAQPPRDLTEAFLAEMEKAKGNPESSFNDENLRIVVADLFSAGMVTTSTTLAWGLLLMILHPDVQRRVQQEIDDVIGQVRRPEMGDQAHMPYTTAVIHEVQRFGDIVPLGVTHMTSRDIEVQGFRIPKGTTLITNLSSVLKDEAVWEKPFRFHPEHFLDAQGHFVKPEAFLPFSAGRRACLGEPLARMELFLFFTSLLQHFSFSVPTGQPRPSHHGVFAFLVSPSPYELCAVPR
protocol: Inhibition of CYP2D6 (unknown origin)
Format: ADME
readout: IC50

## Input May I ask what IC50 has been recorded for COCCCOc1cc2c(cc1OC)-c1cc(=O)c(C(=O)O)cn1[C@H](C(C)(C)C)CO2 ?
## Output > 50 µM

###

Cmax overview
protocol: Cmax in Sprague-Dawley rat at 2 mg/kg, po
Type: ADME, organism-based
Set-up: dose 2 mg/kg, route po
assay_conditions: in vivo
# value in nM; strip the unit string

- smiles_string: "COCCCOc1cc2c(cc1OC)-c1cc(=O)c(C(=O)O)cn1[C@H](C(C)(C)C)CO2"
  recorded_number: 659

## Input Requested read-out: Cmax. Entry: COCCCOc1cc2c(cc1C(C)=O)-c1cc(=O)c(C(=O)O)cn1[C@H](C(C)(C)C)CO2
## Output 104

###

tested_system: CYP2C9 (Homo sapiens)
Sequence (P11712 whole entry): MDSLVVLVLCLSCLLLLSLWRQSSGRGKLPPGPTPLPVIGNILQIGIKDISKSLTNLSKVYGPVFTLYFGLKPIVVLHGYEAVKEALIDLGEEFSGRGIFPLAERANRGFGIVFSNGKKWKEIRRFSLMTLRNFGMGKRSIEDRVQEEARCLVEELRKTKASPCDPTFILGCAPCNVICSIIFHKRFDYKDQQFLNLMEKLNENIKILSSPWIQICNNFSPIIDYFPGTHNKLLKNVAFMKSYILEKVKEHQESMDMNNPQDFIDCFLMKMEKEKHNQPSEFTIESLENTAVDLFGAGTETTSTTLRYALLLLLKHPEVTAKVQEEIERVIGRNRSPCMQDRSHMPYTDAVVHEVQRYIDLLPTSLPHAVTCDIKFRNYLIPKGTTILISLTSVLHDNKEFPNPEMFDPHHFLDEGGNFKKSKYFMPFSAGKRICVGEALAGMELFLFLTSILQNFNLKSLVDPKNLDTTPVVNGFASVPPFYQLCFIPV
protocol: Inhibition of CYP2C9 (unknown origin)
Type: ADME
pIC50: −log10 of the molar value.
readout: pIC50

## Input Given the entry COCCCOc1cc2c(cc1OC)-c1cc(=O)c(C(=O)O)cn1[C@H](C(C)(C)C)CO2 , report its measured pIC50.
## Output < 4.30

###

protocol: AUC (0-last) in C57BL/6 mouse at 2 mg/kg, po
Assay type: ADME, organism-based
Set-up: dose 2 mg/kg, route po
assay_conditions: in vivo
readout: AUC(0-t)
For clarity, give the value followed by its unit.

Illustrative cases are given below, each with its answer.
- smiles_string: "COCCCOc1cc2c(cc1Cl)-c1cc(=O)c(C(=O)O)cn1[C@H](C(C)(C)C)CO2"
  result: "0.193 µM·h"
- smiles_string: "COCCCOc1cc2c(cc1C(C)=O)-c1cc(=O)c(C(=O)O)cn1[C@H](C(C)(C)C)CO2"
  result: "0.478 µM·h"

Now look at this entry.
## Input Sample COCCCOc1cc2c(cc1Cl)-c1cc(=O)c(C(=O)O)cn1[C@H](C(C)C)CO2 — what was its AUC(0-t)?
## Output 1.34 µM·h

###

protocol: Half life in C57BL/6 mouse at 1 mg/kg, iv
Type: ADME, organism-based
assay_conditions: in vivo
readout: half-life (h)
Express your answer in h, writing the number without its unit.

## Input half-life lookup needed for COCCCOc1cc2c(cc1C(C)=O)-c1cc(=O)c(C(=O)O)cn1[C@H](C(C)(C)C)CO2 , thanks.
## Output 0.6

## Input Give its half-life value. Item: COCCCOc1cc2c(cc1Cl)-c1cc(=O)c(C(=O)O)cn1[C@H](C(C)(C)C)CO2
## Output 6.3

## Input Suppose we examine the compound COCCCOc1cc2c(cc1OC)-c1cc(=O)c(C(=O)O)cn1[C@H](C(C)(C)C)CO2 ; what half-life value has been reported?
## Output 2.5

## Input For the compound COCCCOc1cc2c(cc1Cl)-c1cc(=O)c(C(=O)O)cn1[C@H](C(C)C)CO2 , what half-life is on record?
## Output 1.6
